assayed system: T1, human SIRP-α v1 D1 domain (human, UniProt P78324 31-149)
T1 construct: also called human v1
T1 sequence (P78324 31-149 limits assumed): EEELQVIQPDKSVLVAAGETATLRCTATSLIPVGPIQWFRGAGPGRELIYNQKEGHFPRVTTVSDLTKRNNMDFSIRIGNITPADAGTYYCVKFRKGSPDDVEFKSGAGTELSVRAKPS
assay: SPR, Langmuir fit
Catalogue of koff readings, one per entry.
readout kind: koff (s⁻¹)

[[record]]
binder = "S21 (scFv, V domains shown, also called clone 21; scFv-Fc form of AB21) VH: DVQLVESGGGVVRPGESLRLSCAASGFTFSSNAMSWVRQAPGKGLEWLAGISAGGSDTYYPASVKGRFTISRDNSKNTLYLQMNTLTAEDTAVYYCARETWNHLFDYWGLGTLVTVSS VL: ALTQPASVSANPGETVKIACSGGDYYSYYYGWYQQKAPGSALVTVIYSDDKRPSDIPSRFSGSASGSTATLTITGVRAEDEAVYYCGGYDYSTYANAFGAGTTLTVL"
readout_kind = "koff"
obs_value = 0.00018

[[record]]
binder = "S28 (scFv, V domains shown, also called clone 28) VH: DVQLVESGGGVVRPGESLRLSCAASGFSFSSNAMSWVRQAPGKGLEWVAGISASGDTYYSGSMKGRFTISRDNSKNTLYLQMNSLTAEDTAVYYCARETWNHLFDYWGLGTLVTVSS VL: ALTQPASVSANPGETVKITCSGGSDSYYYGWHQQKSPGSAPVTVIYSDDQRPPDIPSRFSGSASGSTTTLTITGVRAEDEAVYYCGGYDYSTYTNTFGAGTTLTVL"
readout_kind = "koff"
obs_value = "2.11e-05"

[[record]]
binder = "S201 (scFv, V domains shown) VH: DVQLVESGGAVVRPGETLRLSCTASGFTFSSYAMSWVRQAPGKGLEWVSGISASGSDTYYADSVKGRSTISRDNSKNTLYLRMSSLTAEDTAVYYCARETWNHLFDYWGLGTLVTVSS VL: ALTQPASVSANPGETVKITCSGGGTSSYYGWYQQKSPGSAPVTLIHSDDKRPSDIPSRFSGSASGSTATLTITGVQVEDEAVYYCGGYDYTTYVNTFGAGTTLTVL"
readout_kind = "koff"
obs_value = "3.46e-05"

[[record]]
binder = "S26 (scFv, V domains shown, also called clone 26) VH: DVQLVESGGGVVRPGESLRLSCAASGFTFSTYAMSWVRQAPGKGLEWVSGISASGSGTYYGDSVKGRFTMSRDNSKNTLYLQMNSLTAEDTAVYYCARETWNHLFDYWGLGTLVTVSS VL: ALTQPASVSANLGGTVEITCSGGSSSYYGWYQQKSPGSAPVTVIYSDNQRPSDIPSRFSGSASDSTATLTITGVQVEDEAIYYCGGYDSSTYANTFGAGTTLTVL"
readout_kind = "koff"
obs_value = "5.81e-05"

[[record]]
binder = "S161 (scFv, V domains shown, scFv-Fc format (VL-linker-VH on human IgG1 Fc)) VH: DVQLVESGGGVVRPGESLRLSCAASGFTFSNFAMTWVRQAPGKGPEWVSLVSVTATTYYADSVKGRFTISRDNSKSTLYLQMNSLRAEDTAVYYCAKITWNNLFDYWGLGTLVTVSS VL: EIVLTQSPGTLSLSPGERATLSCRASQTVGSKLAWYQQKPGQAPRLLIYDSSSRASGIPDRFSGSGSGTDFTLTISSLQSEDSAVYYCQQHNDWPPYTFGGGTKVEIK"
readout_kind = "koff"
obs_value = 0.00337


Where do the numbers come from? From patent US20210363269A1.
